System: Fibroblast
experimentalProtocol: Multiplex assay against human fibroblast
Format: toxicity, cell-based
conditionsUsed: 12 h, 10 µM, compound concentration 10 uM, replicate 2
reportedEndpoint: Population Hoechst High Intensity Objects (%)
Number in %, nothing else.

INPUT: Indicate its recorded Population Hoechst High Intensity Objects (%); the molecule in question is Cc1cc2c(cc1N1C(=O)c3cccc4c(CCCO)ccc(c34)C1=O)n(C)c(=O)n2C
OUTPUT: 9

INPUT: Indicate its recorded Population Hoechst High Intensity Objects (%); the molecule in question is COc1cc2c(NC3CCN(C(C)C)CC3)nc(N3CCC(F)(F)CC3)nc2cc1OCCCN1CCCC1
OUTPUT: 8

INPUT: Indicate its recorded Population Hoechst High Intensity Objects (%); the molecule in question is COc1ccc(NS(=O)(=O)c2sc3ccc(Cl)cc3c2C)cc1N1CCNCC1.Cl
OUTPUT: 4

INPUT: Indicate its recorded Population Hoechst High Intensity Objects (%); the molecule in question is CNc1oc(-c2cccc3ccccc23)nc1C#N
OUTPUT: 46

INPUT: Indicate its recorded Population Hoechst High Intensity Objects (%); the molecule in question is CCCn1c(=O)c2[nH]c(C34CC5CC(CC3C5)C4)nc2n(CCC)c1=O [ROLOFYLLINE]
OUTPUT: 3

----------
Kindly state Population Normal (%) for each of the entries shown.
Test system: HEK-293T
experimentalProtocol: Multiplex assay against HEK293T
Assay type: toxicity, cell-based
conditionsUsed: human, 24 h, 1 µM, compound concentration 1 uM, replicate 2

INPUT: Indicate its recorded Population Normal (%); the compound in question is Cl.Cl.NC1(c2ccc(-c3nc4ccn5c(=O)[nH]nc5c4cc3-c3ccccc3)cc2)CCC1
OUTPUT: 92%

INPUT: Indicate its recorded Population Normal (%); the compound in question is CCOc1cc(N2CCC(O)CC2)ccc1Nc1ncc2c(n1)N(C1CCCC1)CCC(=O)N2C
OUTPUT: 96%

INPUT: Indicate its recorded Population Normal (%); the compound in question is COc1ccc(NS(=O)(=O)c2sc3ccc(Cl)cc3c2C)cc1N1CCNCC1.Cl
OUTPUT: 97%

INPUT: Indicate its recorded Population Normal (%); the compound in question is CC(C)(C)c1cnc(CSc2cnc(NC(=O)C3CCNCC3)s2)o1
OUTPUT: 91%

INPUT: Indicate its recorded Population Normal (%); the compound in question is CCOc1cc2ncc(C#N)c(Nc3ccc(OCc4cccc(F)c4)c(Cl)c3)c2cc1NC(=O)/C=C/CN(C)C
OUTPUT: 97%

----------
Kindly state Population Fragmented Nuclei (%) for each of the entries shown.
Tested on: HEK-293T
experimentalProtocol: Multiplex assay against HEK293T
Type: toxicity, cell-based
conditionsUsed: human, 24 h, 1 µM, compound concentration 1 uM, replicate 2
Number in %, nothing else.

INPUT: Indicate its recorded Population Fragmented Nuclei (%); the compound in question is CC(C)Oc1ccc(C(=O)N[C@H](CNC(=O)CN(C)C)Cc2ccc(-c3cn4cccc([C@H](C)O)c4n3)cc2)cc1Cl [GSK-923295A]
OUTPUT: 13

INPUT: Indicate its recorded Population Fragmented Nuclei (%); the compound in question is c1ccc2oc(-c3csc(C4CCN(Cc5nc6ncccc6[nH]5)CC4)n3)cc2c1
OUTPUT: 5

INPUT: Indicate its recorded Population Fragmented Nuclei (%); the compound in question is Nc1ccc(C(=O)Nc2cccc(-c3nc(N4CCOCC4)c4oc5ncccc5c4n3)c2)cn1
OUTPUT: 3

INPUT: Indicate its recorded Population Fragmented Nuclei (%); the compound in question is Cc1cn(-c2cc(NC(=O)c3ccc4c(c3)CN(c3cncnc3)C[C@@H]4C)cc(C(F)(F)F)c2)cn1
OUTPUT: 15

INPUT: Indicate its recorded Population Fragmented Nuclei (%); the compound in question is CC(C)N1CCC(C)(C)c2cc(C#Cc3ccc(C(=O)O)cc3)ccc21
OUTPUT: 4

INPUT: Indicate its recorded Population Fragmented Nuclei (%); the compound in question is CNC(=O)c1nn(C)c2c1C(C)(C)Cc1cnc(Nc3ccc(N4CCN(C)CC4)cc3)nc1-2
OUTPUT: 2

INPUT: Indicate its recorded Population Fragmented Nuclei (%); the compound in question is Cl.Cl.NC1(c2ccc(-c3nc4ccn5c(=O)[nH]nc5c4cc3-c3ccccc3)cc2)CCC1
OUTPUT: 23
